test system: 186277-243-T-J2-PDC complex spheroids, viability; experiment: Anticancer human tumor 186277-243-T-J2-PDC patient-derived colon adenocarcinoma cell line growth inhibition [RAS]; settings: curve of first compound; second compound 0.0949 µM;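 note: spheroids exposed to compounds for 7 days before viability read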
pIC50: −log10 of the molar value.
Let's look at some compounds and their measured pIC50.
ENDPOINT LABEL: pIC50

• O=C(c1ccc(F)c(F)c1Nc1ccc(I)cc1F)N1CC(O)([C@@H]2CCCCN2)C1 + CCn1c(-c2cccnc2C(C)OC)c2c3cc(ccc31)N1CCOC(CC(NC(=O)C(C(C)C)N(C)C(=O)C3(F)CCN(C(=O)C#CC(C)(C)N(C)C)CC3)C(=O)N3CCCC(N3)C(=O)OCC(C)(C)C2)C1 = 7.13
• CCC(CC)c1cc(NC2CCC(N)C2)n2nccc2n1 (configuration not stated) + CCn1c(-c2cccnc2C(C)OC)c2c3cc(ccc31)N1CCOC(CC(NC(=O)C(C(C)C)N(C)C(=O)C3(F)CCN(C(=O)C#CC(C)(C)N(C)C)CC3)C(=O)N3CCCC(N3)C(=O)OCC(C)(C)C2)C1 = 5.81
• CC(Nc1ccc2c(c1)OCCn1cc(N3C(=O)OCC3C(F)F)nc1-2)C(N)=O (configuration not stated) + CCn1c(-c2cccnc2C(C)OC)c2c3cc(ccc31)N1CCOC(CC(NC(=O)C(C(C)C)N(C)C(=O)C3(F)CCN(C(=O)C#CC(C)(C)N(C)C)CC3)C(=O)N3CCCC(N3)C(=O)OCC(C)(C)C2)C1 = 5.59
